target: bovine cardiac myofibrils (full-length cardiac myosin ATPase in the native sarcomere) (Bos taurus (Bovine)); test: Skinned bovine cardiac myofibril ATPase assay (PK/LDH-coupled); format: biochemical; conditions: Ca2+ activating to 75% of maximal rate, concentration giving 15% inhibition
Sequence (Q9BE39 whole entry): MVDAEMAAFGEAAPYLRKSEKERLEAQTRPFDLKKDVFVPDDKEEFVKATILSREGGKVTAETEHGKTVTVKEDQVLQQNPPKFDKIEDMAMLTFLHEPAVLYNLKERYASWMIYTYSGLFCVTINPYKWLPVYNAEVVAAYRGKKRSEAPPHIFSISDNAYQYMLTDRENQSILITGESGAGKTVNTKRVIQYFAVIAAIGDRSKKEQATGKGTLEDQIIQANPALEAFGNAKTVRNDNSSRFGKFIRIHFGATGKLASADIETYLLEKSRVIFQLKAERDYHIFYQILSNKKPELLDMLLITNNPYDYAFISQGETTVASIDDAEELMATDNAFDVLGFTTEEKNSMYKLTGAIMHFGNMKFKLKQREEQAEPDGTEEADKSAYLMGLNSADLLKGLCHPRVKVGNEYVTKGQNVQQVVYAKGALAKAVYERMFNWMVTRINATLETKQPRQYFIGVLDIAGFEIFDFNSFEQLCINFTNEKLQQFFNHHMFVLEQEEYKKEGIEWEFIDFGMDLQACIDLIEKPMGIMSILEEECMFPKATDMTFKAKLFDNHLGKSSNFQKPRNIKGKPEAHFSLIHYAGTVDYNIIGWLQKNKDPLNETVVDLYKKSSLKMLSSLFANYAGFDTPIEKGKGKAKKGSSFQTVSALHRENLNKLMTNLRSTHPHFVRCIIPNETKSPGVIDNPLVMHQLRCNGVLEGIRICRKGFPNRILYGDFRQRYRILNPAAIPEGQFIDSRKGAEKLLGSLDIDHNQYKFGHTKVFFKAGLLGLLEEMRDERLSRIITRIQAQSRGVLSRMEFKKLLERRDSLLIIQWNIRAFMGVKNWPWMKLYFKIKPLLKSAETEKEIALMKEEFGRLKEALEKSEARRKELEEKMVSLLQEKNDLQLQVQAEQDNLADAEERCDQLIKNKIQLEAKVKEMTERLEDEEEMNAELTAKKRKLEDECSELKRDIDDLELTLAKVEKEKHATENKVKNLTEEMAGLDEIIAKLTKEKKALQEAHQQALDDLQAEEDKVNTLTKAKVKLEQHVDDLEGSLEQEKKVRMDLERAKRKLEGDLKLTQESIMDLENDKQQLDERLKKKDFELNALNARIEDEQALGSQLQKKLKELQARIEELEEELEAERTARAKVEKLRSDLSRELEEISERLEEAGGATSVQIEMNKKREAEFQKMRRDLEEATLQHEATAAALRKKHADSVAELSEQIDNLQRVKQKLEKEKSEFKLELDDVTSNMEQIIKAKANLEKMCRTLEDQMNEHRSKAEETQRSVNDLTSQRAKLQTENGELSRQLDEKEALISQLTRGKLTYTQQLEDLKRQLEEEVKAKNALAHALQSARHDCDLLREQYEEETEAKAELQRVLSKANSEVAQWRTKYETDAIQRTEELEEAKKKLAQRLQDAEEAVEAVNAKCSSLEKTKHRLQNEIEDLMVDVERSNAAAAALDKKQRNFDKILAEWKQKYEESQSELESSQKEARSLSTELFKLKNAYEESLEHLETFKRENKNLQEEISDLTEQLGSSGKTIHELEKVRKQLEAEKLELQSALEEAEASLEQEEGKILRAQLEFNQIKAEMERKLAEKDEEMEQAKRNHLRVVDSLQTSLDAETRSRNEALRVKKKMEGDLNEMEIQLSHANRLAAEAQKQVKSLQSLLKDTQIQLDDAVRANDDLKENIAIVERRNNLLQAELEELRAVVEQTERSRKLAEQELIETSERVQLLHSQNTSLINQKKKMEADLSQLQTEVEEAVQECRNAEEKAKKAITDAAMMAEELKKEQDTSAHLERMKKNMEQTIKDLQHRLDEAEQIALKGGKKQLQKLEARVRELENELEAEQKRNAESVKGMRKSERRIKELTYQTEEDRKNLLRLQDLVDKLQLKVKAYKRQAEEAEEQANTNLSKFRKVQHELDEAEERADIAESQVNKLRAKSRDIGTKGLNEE
Sequence (P85100 whole entry partner): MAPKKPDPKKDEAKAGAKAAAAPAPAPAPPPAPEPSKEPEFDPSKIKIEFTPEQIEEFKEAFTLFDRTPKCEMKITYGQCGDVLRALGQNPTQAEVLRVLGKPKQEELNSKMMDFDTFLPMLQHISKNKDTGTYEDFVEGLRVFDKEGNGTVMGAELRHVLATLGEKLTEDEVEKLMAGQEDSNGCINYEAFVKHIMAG
Sequence (Q3SZE5 whole entry partner): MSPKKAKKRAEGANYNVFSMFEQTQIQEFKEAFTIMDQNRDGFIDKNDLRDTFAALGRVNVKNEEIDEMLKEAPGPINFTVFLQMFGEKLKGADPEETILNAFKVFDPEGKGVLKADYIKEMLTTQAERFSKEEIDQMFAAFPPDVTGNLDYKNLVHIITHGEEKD
testReadout: CDMF75 IC15 (nM)
Give just the number in nM; leave the unit off.

Consider the worked cases shown below.
CCc1nc(-c2ccc3c(c2)CC[C@H]3NC(=O)c2ncc(C)o2)no1 ... 600
COCc1nc(-c2ccc3c(c2)CC[C@H]3NC(=O)c2cc(C(F)F)ccn2)no1 ... 1500
CCc1nc(-c2ccc3c(c2)CC[C@H]3NC(=O)c2cnn(CCOC)c2C)no1 [Compound 574] ... 1000
CC(=O)N[C@@H]1COc2cc(-c3noc(C4CCC4)n3)ccc21 ... 2000
CCc1noc(-c2ccc3c(c2)CC[C@H]3NC(=O)c2cnn(C)c2C)n1 ... 800
O=C(N[C@@H]1CCc2cc(-c3noc(C4CC4)n3)ccc21)c1cnn(CCO)c1 ... 1200

Kindly note the recorded CDMF75 IC15 for Cc1cc(C(=O)NC2CCc3cc(-c4noc(C(F)F)n4)ccc32)cc(C)n1 (centres unmarked) , which is 2100

For record CCc1nc(-c2ccc3c(c2)CC[C@H]3NC(=O)c2ccc(=O)n(CC)c2)no1 the listed CDMF75 IC15 is 1400

Given item Cc1nc(-c2ccc3c(c2)CCC3NC(=O)c2cnoc2C)no1 (centres unmarked) , the value recorded as its CDMF75 IC15 is 1200
